system: DPX2 cells; settings: human
property: DPX2 Viability @ 25 μM (%)
Quick reminder: number only, in %, skip the unit.

-- ask Please look at this compound and report its DPX2 Viability @ 25 μM: CO[C@H]1/C=C/O[C@@]2(C)Oc3c(C)c(O)c4c(=O)c(c5oc6cc(C)cc(N7CCN(C(=O)c8ccc9occc9c8)CC7)c6nc-5c4c3C2=O)NC(=O)/C(C)=C\C=C\[C@H](C)[C@H](O)[C@@H](C)[C@@H](O)[C@@H](C)[C@H](OC(C)=O)[C@@H]1C [Compound 30h]
-- reply 57

Further cases:
-- ask Please look at this compound and report its DPX2 Viability @ 25 μM: CO[C@H]1/C=C/O[C@@]2(C)Oc3c(C)c(O)c4c(=O)c(c5oc6cc(N7CCN(CC(C)C)CC7)cc(OCc7ccc(CN8CCN(C(=O)Cn9ccnc9)CC8)cc7)c6nc-5c4c3C2=O)NC(=O)/C(C)=C\C=C\[C@H](C)[C@H](O)[C@@H](C)[C@@H](O)[C@@H](C)[C@H](OC(C)=O)[C@@H]1C [Compound 17c]
-- reply 94

-- ask Please look at this compound and report its DPX2 Viability @ 25 μM: `CO[C@H]1/C=C/O[C@@]2(C)Oc3c(C)c(O)c4c(=O)c(c5oc6cccc(OCCCCN7CCN(C)CC7)c6nc-5c4c3C2=O)NC(=O)/C(C)=C\C=C\[C@H](C)[C@H](O)[C@@H](C)[C@@H](O)[C@@H](C)[C@H](OC(C)=O)[C@@H]1C`
-- reply 47

-- ask Please look at this compound and report its DPX2 Viability @ 25 μM: CO[C@H]1/C=C/O[C@@]2(C)Oc3c(C)c(O)c4c(=O)c(c5oc6cc(N7CCN(CC(C)C)CC7)cc(OCc7ccc(CN8CCN(C(=O)CN9CCOCC9)CC8)cc7)c6nc-5c4c3C2=O)NC(=O)/C(C)=C\C=C\[C@H](C)[C@H](O)[C@@H](C)[C@@H](O)[C@@H](C)[C@H](OC(C)=O)[C@@H]1C [Compound 17d]
-- reply 84

-- ask Please look at this compound and report its DPX2 Viability @ 25 μM: COC(=O)N1CCN(c2cc(C)c3nc4c5c6c7c(C)c(O)c5c(=O)c(c-4oc3c2)NC(=O)/C(C)=C\C=C\[C@H](C)[C@H](O)[C@@H](C)[C@@H](O)[C@@H](C)[C@H](OC(C)=O)[C@H](C)[C@@H](OC)/C=C/O[C@@](C)(O7)C6=O)CC1 [Compound 26g]
-- reply 105

-- ask Please look at this compound and report its DPX2 Viability @ 25 μM: `CO[C@H]1/C=C/O[C@@]2(C)Oc3c(C)c(O)c4c(=O)c(c5oc6cccc(OCCCCN7CCNCC7)c6nc-5c4c3C2=O)NC(=O)/C(C)=C\C=C\[C@H](C)[C@H](O)[C@@H](C)[C@@H](O)[C@@H](C)[C@H](OC(C)=O)[C@@H]1C`
-- reply 59

====

test system: M. tuberculosis H37Rv; experiment: Minimum bactericidal concentration (MBC, CFU Assay); type: cell-based, Mycobacterium tuberculosis; conditions: CFU Assay MBC99 relative to rifampin (RMP = 1)
Items are presented alongside their recorded MBC99 Day 7 (CFU Assay) MBC99 Rel to RMP.
Answer using only a numeral; do not append any unit.

-- ask Please look at this compound and report its MBC99 Day 7 (CFU Assay) MBC99 Rel to RMP: CO[C@H]1/C=C/O[C@@]2(C)Oc3c(C)c(O)c4c(=O)c(c5oc6cc(N7CCN(CC(C)C)CC7)cc(OCc7ccc(CN8CCNCC8)cc7)c6nc-5c4c3C2=O)NC(=O)/C(C)=C\C=C\[C@H](C)[C@H](O)[C@@H](C)[C@@H](O)[C@@H](C)[C@H](OC(C)=O)[C@@H]1C [Compound 17b]
-- reply 0.15

Further cases:
-- ask Please look at this compound and report its MBC99 Day 7 (CFU Assay) MBC99 Rel to RMP: CO[C@H]1/C=C/O[C@@]2(C)Oc3c(C)c(O)c4c(=O)c(c5oc6cc(N7CCN(C(=O)c8cccc(-n9ccnc9)c8)CC7)cc(C)c6nc-5c4c3C2=O)NC(=O)/C(C)=C\C=C\[C@H](C)[C@H](O)[C@@H](C)[C@@H](O)[C@@H](C)[C@H](OC(C)=O)[C@@H]1C [Compound 29a]
-- reply 0.15

-- ask Please look at this compound and report its MBC99 Day 7 (CFU Assay) MBC99 Rel to RMP: `CO[C@H]1/C=C/O[C@@]2(C)Oc3c(C)c(O)c4c(=O)c(c5oc6cc(N7CCN(CC(C)C)CC7)cc(OCCCCN7CCN(CCn8ccnc8)CC7)c6nc-5c4c3C2=O)NC(=O)/C(C)=C\C=C\[C@H](C)[C@H](O)[C@@H](C)[C@@H](O)[C@@H](C)[C@H](OC(C)=O)[C@@H]1C`
-- reply 0.23

====

Items are presented alongside their recorded DPX2 Viability @ 25 μM.
tested on: DPX2 cells; conditions: human

Worked examples, 3 compounds total:
-- ask System DPX2 cells. Read-out DPX2 Viability @ 25 μM. Item CO[C@H]1/C=C/O[C@@]2(C)Oc3c(C)c(O)c4c(=O)c(c5oc6cc(N7CCN(C(C)=O)CC7)cc(C)c6nc-5c4c3C2=O)NC(=O)/C(C)=C\C=C\[C@H](C)[C@H](O)[C@@H](C)[C@@H](O)[C@@H](C)[C@H](OC(C)=O)[C@@H]1C [Compound 26d] . Report value.
-- reply 88%

-- ask System DPX2 cells. Read-out DPX2 Viability @ 25 μM. Item CCOC(=O)N1CCN(c2cc(C)c3nc4c5c6c7c(C)c(O)c5c(=O)c(c-4oc3c2)NC(=O)/C(C)=C\C=C\[C@H](C)[C@H](O)[C@@H](C)[C@@H](O)[C@@H](C)[C@H](OC(C)=O)[C@H](C)[C@@H](OC)/C=C/O[C@@](C)(O7)C6=O)CC1 [Compound 26h] . Report value.
-- reply 110%

-- ask System DPX2 cells. Read-out DPX2 Viability @ 25 μM. Item CO[C@H]1/C=C/O[C@@]2(C)Oc3c(C)c(O)c4c(=O)c(c5oc6cc(C)cc(N7CCN(C(=O)c8cccc(-c9ccccn9)c8)CC7)c6nc-5c4c3C2=O)NC(=O)/C(C)=C\C=C\[C@H](C)[C@H](O)[C@@H](C)[C@@H](O)[C@@H](C)[C@H](OC(C)=O)[C@@H]1C [Compound 30g] . Report value.
-- reply 61%

Please look at the following compound next.
-- ask System DPX2 cells. Read-out DPX2 Viability @ 25 μM. Item CO[C@H]1/C=C/O[C@@]2(C)Oc3c(C)c(O)c4c(=O)c(c5oc6cc(N7CCC(CC(=O)O)CC7)cc(C)c6nc-5c4c3C2=O)NC(=O)/C(C)=C\C=C\[C@H](C)[C@H](O)[C@@H](C)[C@@H](O)[C@@H](C)[C@H](OC(C)=O)[C@@H]1C [Compound 29g] . Report value.
-- reply 101%

====

Reported DPX2 Viability @ 6.25 μM, DPX2 cells.

-- ask Please look at this compound and report its DPX2 Viability @ 6.25 μM: CO[C@H]1/C=C/O[C@@]2(C)Oc3c(C)c(O)c4c(=O)c(c5oc6cc(N7CCC(CC(=O)O)CC7)cc(OCc7ccc(CN8CCOCC8)cc7)c6nc-5c4c3C2=O)NC(=O)/C(C)=C\C=C\[C@H](C)[C@H](O)[C@@H](C)[C@@H](O)[C@@H](C)[C@H](OC(C)=O)[C@@H]1C [Compound 17l]
-- reply 107%

====

target: E. coli D516V (RIF^R) RNAP (Escherichia coli, UniProt P0A8V2, D516V); assay: biochemical
property: pIC50
Scale: negative log10 of molar concentration, which is what pIC50 denotes.

Worked examples, 3 compounds total:
-- ask Please look at this compound and report its pIC50: `CO[C@H]1/C=C/O[C@@]2(C)Oc3c(C)c(O)c4c(=O)c(c5oc6cc(N7CCN(CC(C)C)CC7)cc(OCCCCN7CCN(C(=O)Cn8ccnc8)CC7)c6nc-5c4c3C2=O)NC(=O)/C(C)=C\C=C\[C@H](C)[C@H](O)[C@@H](C)[C@@H](O)[C@@H](C)[C@H](OC(C)=O)[C@@H]1C`
-- reply 4.23

-- ask Please look at this compound and report its pIC50: CO[C@H]1/C=C/O[C@@]2(C)Oc3c(C)c(O)c4c(=O)c(c5oc6cccc(OCc7ccc(CN8CCN(C(=O)CN9CCOCC9)CC8)cc7)c6nc-5c4c3C2=O)NC(=O)/C(C)=C\C=C\[C@H](C)[C@H](O)[C@@H](C)[C@@H](O)[C@@H](C)[C@H](OC(C)=O)[C@@H]1C [Compound 16c]
-- reply 5.00

-- ask Please look at this compound and report its pIC50: CO[C@H]1/C=C/O[C@@]2(C)Oc3c(C)c(O)c4c(=O)c(c5oc6cccc(OCc7cccc(CN8CCN(C(C)=O)CC8)c7)c6nc-5c4c3C2=O)NC(=O)/C(C)=C\C=C\[C@H](C)[C@H](O)[C@@H](C)[C@@H](O)[C@@H](C)[C@H](OC(C)=O)[C@@H]1C [Compound 11c]
-- reply 5.06

Further cases:
-- ask Please look at this compound and report its pIC50: `CO[C@H]1/C=C/O[C@@]2(C)Oc3c(C)c(O)c4c(=O)c(c5oc6cccc(OCCCCN7CCOCC7)c6nc-5c4c3C2=O)NC(=O)/C(C)=C\C=C\[C@H](C)[C@H](O)[C@@H](C)[C@@H](O)[C@@H](C)[C@H](OC(C)=O)[C@@H]1C`
-- reply 4.19

-- ask Please look at this compound and report its pIC50: CCC(=O)N1CCN(Cc2cccc(COc3cccc4oc5c6c(=O)c7c(O)c(C)c8c(c7c-5nc34)C(=O)[C@@](C)(O/C=C/[C@H](OC)[C@@H](C)[C@@H](OC(C)=O)[C@H](C)[C@H](O)[C@H](C)[C@@H](O)[C@@H](C)/C=C/C=C(/C)C(=O)N6)O8)c2)CC1 [Compound 11d]
-- reply 6.05

-- ask Please look at this compound and report its pIC50: `CO[C@H]1/C=C/O[C@@]2(C)Oc3c(C)c(O)c4c(=O)c(c5oc6cc(N7CCN(C)CC7)cc(OCCCCN7CCN(C(=O)Cn8ccnc8)CC7)c6nc-5c4c3C2=O)NC(=O)/C(C)=C\C=C\[C@H](C)[C@H](O)[C@@H](C)[C@@H](O)[C@@H](C)[C@H](OC(C)=O)[C@@H]1C`
-- reply 4.92
